Each entry below lists one item and its recorded inhibition at 48 h, 100 µM value.
Assay: Growth inhibition of mouse RAW264.7 cells at 100 uM after 48 hrs by MTT assay
Format: cell-based
Details: read-out: GI
Give the value in % but do not write % after it.

Past entries and their recorded results:
# lookup: inhibition at 48 h, 100 µM of COc1ccc(NC(=O)N2CCN(c3ccnc4cc(Cl)ccc34)CC2)cc1 25.3

# lookup: inhibition at 48 h, 100 µM of O=[N+]([O-])c1ccc(NC(=S)N2CCN(c3ccnc4cc(Cl)ccc34)CC2)cc1 39.9

Next:
# lookup: inhibition at 48 h, 100 µM of O=C(CN1CCN(c2ccnc3cc(Cl)ccc23)CC1)Nc1ncc([N+](=O)[O-])s1 11.3

# lookup: inhibition at 48 h, 100 µM of O=C(c1ccccn1)N1CCN(c2ccnc3cc(Cl)ccc23)CC1 23.6

# lookup: inhibition at 48 h, 100 µM of Clc1ccc2c(N3CCN(Cc4ccc[nH]4)CC3)ccnc2c1 12.6

# lookup: inhibition at 48 h, 100 µM of Fc1ccc(NC(=S)N2CCN(c3ccnc4cc(Cl)ccc34)CC2)cc1 23.9

# lookup: inhibition at 48 h, 100 µM of O=C(Nc1ccccc1)N1CCN(c2ccnc3cc(Cl)ccc23)CC1 30.9

# lookup: inhibition at 48 h, 100 µM of O=C(CN1CCN(c2ccnc3cc(Cl)ccc23)CC1)Nc1nc2ccc([N+](=O)[O-])cc2s1 23.6

# lookup: inhibition at 48 h, 100 µM of CC(C)NC(=O)N1CCN(c2ccnc3cc(Cl)ccc23)CC1 34.4

###

System: Mycobacterium tuberculosis
Assay: microbe, parasite or virus in culture
Conditions: H37Rv, 168 h
Description: Antimycobacterial activity against Mycobacterium tuberculosis H37Rv after 7 days by microplate alamar blue assay
QUANTITY_NAME: MIC (µM)
Give the value in µM but do not write µM after it.

Past entries and their recorded results:
# lookup: MIC of O=C(CN1CCN(c2ccnc3cc(Cl)ccc23)CC1)Nc1cc(C(F)(F)F)ccc1Cl 24.2

# lookup: MIC of O=C(CN1CCN(c2ccnc3ccccc23)CC1)NCc1ccccn1 138

# lookup: MIC of O=C(CN1CCN(c2ccnc3cc(Cl)ccc23)CC1)Nc1ccccn1 17.7

# lookup: MIC of O=C(c1ccccn1)N1CCN(c2ccnc3cc(Cl)ccc23)CC1 35.4

# lookup: MIC of O=[N+]([O-])c1ccc(N2CCN(c3ccnc4cc(Cl)ccc34)CC2)c2nonc12 7.26

# lookup: MIC of O=C(Nc1ccccc1)N1CCN(c2ccnc3cc(Cl)ccc23)CC1 17

Next:
# lookup: MIC of Cc1ccc(NC(=S)N2CCN(c3ccnc4cc(Cl)ccc34)CC2)cc1 63

# lookup: MIC of COc1ccc2[nH]c(C(=O)N3CCN(c4ccnc5cc(Cl)ccc45)CC3)cc2c1 29.7

# lookup: MIC of O=C(Nc1ccc([N+](=O)[O-])cc1)N1CCN(c2ccnc3cc(Cl)ccc23)CC1 30.4

# lookup: MIC of O=C(CN1CCN(c2ccnc3cc(Cl)ccc23)CC1)NCc1ccco1 32.5

###

Test system: Mycobacterium tuberculosis
Assay: microbe, parasite or virus in culture
Conditions: H37Rv, 168 h
QUANTITY_NAME: MIC (µM)
Give the value in µM but do not write µM after it.

Past entries and their recorded results:
# lookup: MIC of O=[N+]([O-])c1cnc(N2CCN(c3ccnc4cc(Cl)ccc34)CC2)s1 33.2

# lookup: MIC of COc1ccc2c(N3CCN(CC(=O)NCc4ccccn4)CC3)ccnc2c1 63.9

# evaluate next
# lookup: MIC of O=C(c1ccc[nH]1)N1CCN(c2ccnc3cc(Cl)ccc23)CC1 18.3

###

Assay: Protein binding in human plasma at 5000 ng/ml by HPLC analysis
Assay type: ADME, cell-free
Settings: read-out: PPB (converted)
QUANTITY_NAME: fraction unbound at 5000 ng/ml
The answer should be written as a number, with no unit following it.

# lookup: fraction unbound at 5000 ng/ml of Fc1ccc(NC(=S)N2CCN(c3ccnc4cc(Cl)ccc34)CC2)cc1 0.057

###

Assay: Protein binding in human plasma at 100 ng/ml by HPLC analysis
Format: ADME, cell-free
Conditions: read-out: PPB (converted)
QUANTITY_NAME: fraction unbound at 100 ng/ml
The answer should be written as a number, with no unit following it.

# lookup: fraction unbound at 100 ng/ml of Fc1ccc(NC(=S)N2CCN(c3ccnc4cc(Cl)ccc34)CC2)cc1 0.078

###

Test system: Mycobacterium tuberculosis
Experiment: microbe, parasite or virus in culture
Settings: H37Rv, 168 h
We label by threshold. Values of MIC strictly beneath 30 µM are Satisfied. Values of 30 µM and up are Not satisfied.

These recorded examples may help you get a feel for the data.
Is the reported MIC for CCNC(=S)N1CCN(c2ccnc3cc(Cl)ccc23)CC1 strictly below 30 µM? Not satisfied

Is the reported MIC for O=C(Nc1ccc(F)cc1)N1CCN(c2ccnc3cc(Cl)ccc23)CC1 strictly below 30 µM? Satisfied

Is the reported MIC for O=C(CN1CCN(c2ccnc3cc(Cl)ccc23)CC1)NCc1ccccn1 strictly below 30 µM? Not satisfied

Is the reported MIC for NNC(=O)c1ccncc1 [ISONIAZID] strictly below 30 µM? Satisfied

Is the reported MIC for Cc1ccc(NC(=O)N2CCN(c3ccnc4cc(Cl)ccc34)CC2)cc1 strictly below 30 µM? Not satisfied

Is the reported MIC for CC(C)NC(=S)N1CCN(c2ccnc3cc(Cl)ccc23)CC1 strictly below 30 µM? Not satisfied

Is the reported MIC for O=C(c1cc2cc(Cl)ccc2[nH]1)N1CCN(c2ccnc3cc(Cl)ccc23)CC1 strictly below 30 µM? Satisfied

Note: attention shifts to another entry.
Is the reported MIC for O=C(CN1CCN(c2ccnc3cc(C(F)(F)F)ccc23)CC1)NCc1ccccn1 strictly below 30 µM? Not satisfied

###

Experiment: Apparent elimination half life in Wistar rat at 1 mg/kg, iv administered as single dose
Assay type: ADME, organism-based
Conditions: in vivo, read-out: betat1/2(app) (converted)
QUANTITY_NAME: half-life (min)
Give the value in min but do not write min after it.

# lookup: half-life of Fc1ccc(NC(=S)N2CCN(c3ccnc4cc(Cl)ccc34)CC2)cc1 122

###

Molecular target: DNA gyrase subunit B (Mycobacterium smegmatis (strain ATCC 700084 / mc(2)155))
Sequence (A0QNE0 whole entry): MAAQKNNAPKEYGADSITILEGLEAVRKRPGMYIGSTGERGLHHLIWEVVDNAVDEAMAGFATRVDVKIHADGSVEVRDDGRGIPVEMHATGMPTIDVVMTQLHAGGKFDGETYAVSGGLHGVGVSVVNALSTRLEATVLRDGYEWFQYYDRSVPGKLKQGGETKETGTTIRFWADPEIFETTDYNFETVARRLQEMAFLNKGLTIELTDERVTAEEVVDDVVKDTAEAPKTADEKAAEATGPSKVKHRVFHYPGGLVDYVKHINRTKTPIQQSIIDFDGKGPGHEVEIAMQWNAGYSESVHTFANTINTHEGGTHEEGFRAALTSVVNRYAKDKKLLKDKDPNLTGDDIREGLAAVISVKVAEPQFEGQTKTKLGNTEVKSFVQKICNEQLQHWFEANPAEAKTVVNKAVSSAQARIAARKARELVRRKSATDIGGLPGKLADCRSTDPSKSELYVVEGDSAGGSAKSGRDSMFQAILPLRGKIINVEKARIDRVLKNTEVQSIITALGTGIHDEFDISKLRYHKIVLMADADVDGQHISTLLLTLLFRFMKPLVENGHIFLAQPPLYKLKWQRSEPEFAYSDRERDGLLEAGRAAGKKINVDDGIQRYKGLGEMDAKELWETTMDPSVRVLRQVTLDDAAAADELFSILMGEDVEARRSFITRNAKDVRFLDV
We label by threshold. Values of IC50 strictly beneath 10 µM are rule met. Values of 10 µM and up are rule not met.

Is the reported IC50 for O=C(Nc1ccc(F)cc1)N1CCN(c2ccnc3cc(Cl)ccc23)CC1 strictly below 10 µM? rule met

Note: attention shifts to another entry.
Is the reported IC50 for CC(C)NC(=S)N1CCN(c2ccnc3cc(Cl)ccc23)CC1 strictly below 10 µM? rule not met

###

Entries with reported IC50 on DNA gyrase subunit B (Mycobacterium smegmatis (strain ATCC 700084 / mc(2)155))
Give the value in µM but do not write µM after it.

Past entries and their recorded results:
# lookup: IC50 of COc1ccc(NC(=O)N2CCN(c3ccnc4cc(Cl)ccc34)CC2)cc1 21.1

# lookup: IC50 of O=C(NCc1ccccc1)N1CCN(c2ccnc3cc(Cl)ccc23)CC1 6.1

# lookup: IC50 of Clc1ccc2c(N3CCN(Cc4nc5ccccc5[nH]4)CC3)ccnc2c1 32.6

Next:
# lookup: IC50 of S=C(NCc1ccccc1)N1CCN(c2ccnc3cc(Cl)ccc23)CC1 5.5

# lookup: IC50 of O=[N+]([O-])c1cnc(N2CCN(c3ccnc4cc(Cl)ccc34)CC2)s1 9.6

# lookup: IC50 of O=C(CN1CCN(c2ccnc3cc(Cl)ccc23)CC1)NCCc1ccccn1 30.4

# lookup: IC50 of CC(=O)c1ccc(NC(=O)N2CCN(c3ccnc4cc(Cl)ccc34)CC2)cc1 18.8

# lookup: IC50 of O=[N+]([O-])c1ccc(NC(=S)N2CCN(c3ccnc4cc(Cl)ccc34)CC2)cc1 6.8

###

Experiment: Growth inhibition of mouse RAW264.7 cells at 100 uM after 48 hrs by MTT assay
Type: cell-based
Conditions: read-out: GI
Each entry below lists one item and its recorded inhibition at 48 h, 100 µM value.
Units required after the number.

# lookup: inhibition at 48 h, 100 µM of O=C(c1cc2cc(Cl)ccc2[nH]1)N1CCN(c2ccnc3cc(Cl)ccc23)CC1 29.8%

Next:
# lookup: inhibition at 48 h, 100 µM of O=C(Nc1ccc(F)cc1)N1CCN(c2ccnc3cc(Cl)ccc23)CC1 17.6%

# lookup: inhibition at 48 h, 100 µM of S=C(Nc1ccccc1)N1CCN(c2ccnc3cc(Cl)ccc23)CC1 16.5%

# lookup: inhibition at 48 h, 100 µM of O=C(NCc1ccccc1)N1CCN(c2ccnc3cc(Cl)ccc23)CC1 25.2%

# lookup: inhibition at 48 h, 100 µM of O=C(c1cc2cc(F)ccc2[nH]1)N1CCN(c2ccnc3cc(Cl)ccc23)CC1 23.3%

# lookup: inhibition at 48 h, 100 µM of CCNC(=S)N1CCN(c2ccnc3cc(Cl)ccc23)CC1 21.9%

# lookup: inhibition at 48 h, 100 µM of Cc1ccc(NC(=O)N2CCN(c3ccnc4cc(Cl)ccc34)CC2)cc1 33.9%

# lookup: inhibition at 48 h, 100 µM of COc1ccc2[nH]c(C(=O)N3CCN(c4ccnc5cc(Cl)ccc45)CC3)cc2c1 16.4%

# lookup: inhibition at 48 h, 100 µM of CC(C)NC(=S)N1CCN(c2ccnc3cc(Cl)ccc23)CC1 36.3%

# lookup: inhibition at 48 h, 100 µM of O=[N+]([O-])c1ccc(N2CCN(c3ccnc4cc(Cl)ccc34)CC2)c2nonc12 37.2%

# lookup: inhibition at 48 h, 100 µM of O=C(c1ccc[nH]1)N1CCN(c2ccnc3cc(Cl)ccc23)CC1 34.2%

# lookup: inhibition at 48 h, 100 µM of O=C(CN1CCN(c2ccnc3cc(Cl)ccc23)CC1)Nc1cc(C(F)(F)F)ccc1Cl 24.7%

# lookup: inhibition at 48 h, 100 µM of O=C(CN1CCN(c2ccnc3cc(Cl)ccc23)CC1)NCc1cccs1 33.4%

# lookup: inhibition at 48 h, 100 µM of O=C(c1cc2ccccc2[nH]1)N1CCN(c2ccnc3cc(Cl)ccc23)CC1 34.6%
